EXPERIMENT: Approximate solubility in solvents by aliquot addition
Assay type: physicochemical
ASSAY SETUP: 2-propanol, organic solvent or mixture, thermodynamic from solid, Table 11: 2-Propanol; material never went into solution
Where a name gives a salt, the structure may show the parent alone.
ASSAY METRIC: solubility

Need solubility of CC(=O)NC[C@H]1CN(c2ccc(-c3ccc(CNCc4cnn[nH]4)cc3)c(F)c2)C(=O)O1 [Hydrochloride] , thanks.
< 2000 µg/mL

---

log10(MIC) values for the molecules below.
Test system: S. aureus
EXPERIMENT: Minimum inhibitory concentrations (MICs) for S. aureus of exemplary compounds (Table 2)
Type: cell-based
ASSAY SETUP: Staphylococcus aureus, minimum inhibitory concentrations for S. aureus; read-out: MICs
Recall that a logarithmic scale is used here: each number is log10 of MIC in µg/mL.

See these solved cases before continuing.
{"columns": ["MOLECULE", "SYSTEM UNDER TEST", "QUANTITATIVE READOUT"],
 "data": [
  ["CC(=O)NC[C@H]1CN(c2ccc(-c3ccc(CNCc4ccnc5ccccc45)cc3)c(F)c2)C(=O)O1 [Compound 4016]", "S. aureus", 0.00],
  ["CC(=O)NC[C@H]1CN(c2ccc(-c3ccc([C@H](CO)N4CCCC(F)(F)C4)cc3)c(F)c2)C(=O)O1 [Compound 1074]", "S. aureus", 0.60],
  ["CC(=O)NC[C@H]1CN(c2ccc(-c3ccc(CSc4nnnn4C)cc3)c(F)c2)C(=O)O1 [Compound 2015]", "S. aureus", -0.60]
]}

Kindly state the measured log10(MIC) obtained for CC(=O)NC[C@H]1CN(c2ccc(-c3ccc(CSCc4ccccn4)cc3)c(F)c2)C(=O)O1 [Compound 4216] with S. aureus.
-0.30

Repeat with CC(=O)NC[C@H]1CN(c2ccc(-c3ccc(CNC(=O)C4CN(C(=O)OC(C)(C)C)C4)cc3)c(F)c2)C(=O)O1 [Compound 4290]
1.20

And the next one, CC(=O)NC[C@H]1CN(c2ccc(-c3ccc(CNCc4c(C)noc4C)cc3)c(F)c2)C(=O)O1 [Compound 4109] ?
0.00

Also, CC(=O)NC[C@H]1CN(c2ccc(-c3ccc(CNCc4ccc(-c5cccc(S(N)(=O)=O)c5)o4)cc3)c(F)c2)C(=O)O1 [Compound 4158] please.
0.30

---

Type: physicochemical
ASSAY SETUP: radezolid salt forms in HPLC grade water, ambient temperature
ASSAY METRIC: solubility (µg/mL)
Record the value in µg/mL, omitting the unit from your answer.

{"columns": ["COMPOUND", "solubility / µg/mL"],
 "data": [
  ["CC(=O)NC[C@H]1CN(c2ccc(-c3ccc(CNCc4cnn[nH]4)cc3)c(F)c2)C(=O)O1 [Tartrate]", 1800],
  ["CC(=O)NC[C@H]1CN(c2ccc(-c3ccc(CNCc4cnn[nH]4)cc3)c(F)c2)C(=O)O1 [Citrate]", 2600],
  ["CC(=O)NC[C@H]1CN(c2ccc(-c3ccc(CNCc4cnn[nH]4)cc3)c(F)c2)C(=O)O1 [Maleate]", 2300]
]}

Report solubility for CC(=O)NC[C@H]1CN(c2ccc(-c3ccc(CNCc4cnn[nH]4)cc3)c(F)c2)C(=O)O1 [Fumarate] please.
2600

Same read-out for CC(=O)NC[C@H]1CN(c2ccc(-c3ccc(CNCc4cnn[nH]4)cc3)c(F)c2)C(=O)O1 [Phosphate] ?
1100
